# Test system: MOLT-4
# assay-explanation: NCI tumour cell line growth inhibition, 48 h
Active and inactive are the calls of the source. Rule as the data show it: active = GI50 up to about 1.1 µM and inactive = higher.
Kindly supply the reported GI50 values for the records listed here.

Requested read-out: GI50. Entry: CCCCOC(C)(C)/C=C/C(O)[C@](C)(O)[C@H]1[C@H](O)C[C@@]2(C)[C@@H]3CCc4c(cc(OC5OC(CO)C(O)C(O)C5O)c(O)c4C)C3(C)C(=O)C[C@]12C (some centres undefined) > 100 µM (inactive)

# iterate: CO[C@H]1C[C@H](O[C@H]2CC[C@@]3(C)[C@H](CC[C@@H]4[C@@H]3CC[C@]3(C)[C@@H](C5=CC(=O)OC5)CC[C@]43O)C2)O[C@H](C)[C@H]1O < 0.01 µM (active)

# iterate: O=[N+]([O-])c1ccc(N/N=C2/CC3=C2CCCCCCCCCC3)c([N+](=O)[O-])c1 > 100 µM (inactive)

# iterate: C=C1C(=O)OC2C1C(OC(=O)/C(C)=C/C)CC(O)(CCl)C1C(O)C=C(C)C21O (centres undefined) 3.92 µM (inactive)

###

# Test system: NCI-H226
# assay-explanation: NCI tumour cell line growth inhibition, 48 h
Active and inactive are the calls of the source. Cut-off read from the data, not from the text of the source: active = GI50 up to about 1.1 µM and inactive = higher.
Reply using exactly one outcome from YES for active, NO for inactive

Hey, what did the test say about CC(=O)N(C)c1ccc(Nc2ccnc3ccc4nn(C)nc4c23)cc1 ? NO

# iterate: C/C(=N\n1c(Cc2ccccc2)n[nH]c1=O)c1ccccc1 NO

# iterate: CN(C)Cc1ccc(C(C)(C)C)cc1-c1cc(C(C)(C)C)ccc1CN(C)C NO

# iterate: CCCCCCCCCCCCCCCCCCNc1ccn(C2OC(COP(=O)(O)OCC3OC(n4ccc(N)nc4=O)C(O)C3O)C(O)C2O)c(=O)n1 (stereo not given) NO

# iterate: O=C1CN=C(C[N+](=O)[O-])c2ccccc21 NO

# iterate: CC(C)CCCC(C)[C@H]1CCC(C2C[C@@H](O)[C@@H]3CC(O)[C@@H](O)C[C@]3(CO)C2=O)[C@]1(C)CCO (stereo not given in full) NO

# iterate: O=S(=O)(O)c1cc(/N=N/c2c(O)ccc3ccccc23)cc2c(S(=O)(=O)O)cccc12 NO

# iterate: CCOC(=O)C(NC(C)=O)(Nc1ccc(S(N)(=O)=O)cc1)C(F)(F)F (stereo not given) NO

# iterate: C=CC(C)CCC(C/C=C(\C)CCCC(C)C)C(=C)CCCC(C)C (stereo not given) NO

# iterate: CCOC(=O)CSC(=O)NCCCl NO

# iterate: O=C(CCOS(=O)(=O)CF)N1CCN(C(=O)CCOS(=O)(=O)CF)CC1 NO

# iterate: O=C1Cc2c([nH]c3cc(Br)ccc23)-c2ccccc2N1 NO

# iterate: CC(=O)NC1C(OCc2ccccc2)OC(COC(=O)CCCCCCCCCCNc2ccc([N+](=O)[O-])c3[nH]c4ccccc4c(=O)c23)C(O)C1OC(C)C(=O)NC(C)C(=O)NC(CCC(N)=O)C(=O)OCc1ccccc1 (stereo not given) NO

# iterate: CCN(CC)c1ccc(C(=C2C=CC(=[N+](CC)CC)C=C2)c2ccc(N(CC)CC)cc2)cc1 YES

# iterate: NC(=O)NC(=O)C1CCCCC1C(=O)O (stereo not given) NO

# iterate: Cc1ccccc1C1=[N+]([O-])c2ccc(Cl)cc2C1=O NO

# iterate: O=C(c1ccccc1)c1cccc(C(=O)c2ccccc2)c1 NO

# iterate: CC(C)c1oc(=O)cc2c1C(O)C1OC(=O)C3(C)C(O)C4OC4C2(C)C13 (stereo not given) NO

# iterate: Nc1nc(N)nc(CC(=O)O)n1 NO

# iterate: CNC(=S)N/N=C(\C)c1nc2cccnc2[nH]1 NO

# iterate: O=C(CCCN1CCC(O)(c2ccc(Cl)cc2)CC1)c1ccc(F)cc1 NO

# iterate: COc1ccc(N2C(=O)C(Cl)C2c2cc3cc(Br)ccc3nc2Cl)cc1 (stereo not given) NO

# iterate: O=C1C(Cl)C(c2ccccc2Cl)N1n1cnc2ccccc2c1=O (stereo not given) NO

# iterate: C=C1c2nc3ccccc3n2C=C(c2ccccc2)N1c1ccccc1 NO

# iterate: CC(C)OC(=O)OCSc1ccccc1/N=C/c1cccc([N+](=O)[O-])c1 NO

# iterate: CC1=C(C(=O)NCc2ccccc2)C(c2ccco2)C(C(=O)NCc2ccccc2)=C(C)N1 NO

# iterate: CC(C)CC1[C@@H](OCc2ccccc2)COS(=O)(=O)N1Cc1ccccc1 (stereo not given in full) NO

# iterate: CN(C)CC1(C)CC/C(=C\c2ccccc2)C1=O (stereo not given) NO

# iterate: CC(=O)OCc1ccc(-c2nc(C#N)c(N)o2)o1 NO

# iterate: COc1ccc(CCc2ccc3c(c2)OCO3)cc1 NO

# iterate: CCOC(=O)C1S/C(=N\c2ccc(Cl)cc2Cl)N=C1C (stereo not given) NO

# iterate: N=C(N)N/N=C\c1c(-c2cccc([N+](=O)[O-])c2)nc2sc(Cl)cn12 NO

# iterate: CC(C)(C)c1ccc(C(C)(C)C)c(N2C(=O)C3ON=C(c4ccc([N+](=O)[O-])cc4)C3C2=O)c1 (stereo not given) NO

# iterate: N#C[C-](C#N)[n+]1ccc(Cl)cc1 NO

# iterate: C=CC1=C(C)c2cc3[nH]c(c4c5nc(cc6[nH]c(cc1n2)c(C)c6CC)C=C5C(=O)C4C(=O)OC)C(CCC(=O)OC/C=C(\C)CCCC(C)CCCC(C)CCCC(C)C)C3C.C=CC1=C(C)c2cc3[nH]c(c4c5nc(cc6[nH]c(cc1n2)c(C=O)c6CC)C=C5C(=O)C4C(=O)OC)C(CCC(=O)OC/C=C(\C)CCCC(C)CCCC(C)CCCC(C)C)C3C (stereo not given) NO

# iterate: CCCNC(C#N)c1ccc(C(C#N)NCCC)cc1 (stereo not given) NO

# iterate: Clc1ccc(/C=N/C23CC4CC(CC(C4)C2)C3)c(Cl)c1 NO

# iterate: CN1C(=S)CSc2ccccc21 NO

# iterate: Cc1nc2ccc(F)cc2c2c1CCO2 NO

# iterate: CCN(CC)CCCNc1ncc(C)c2c1c1ccc3c(O)cccc3c1n2C NO

Value source: ChEMBL document CHEMBL1201862
